# Test system: PAMPA
# measurement.conditions: Papp (x 10^-6 cm/s) – UV Detection / [row 9]; UV Detection
measurement.kind: Papp
The number alone won't do; follow it with the unit.

input: Which Papp is listed for "CCCCC[C@@H]1OC(=O)[C@@H](C)N(C)C(=O)[C@H](CCCCC)OC(=O)[C@@H](C)N(C)C(=O)[C@H](CCCCC)OC(=O)[C@@H](C)N(C)C(=O)[C@H](CCCCC)OC(=O)[C@@H](C)N(C)C(=O)[C@H](CCCCC)OC(=O)[C@@H](C)N(C)C(=O)[C@H](CCCCC)OC(=O)[C@@H](C)N(C)C1=O" ?
output: 2.19 ×10⁻⁶ cm/s

input: Which Papp is listed for CCCCC[C@@H]1OC(=O)[C@@H](C)N(C)C(=O)[C@H](CCCCC)OC(=O)[C@@H](C)N(C)C(=O)[C@H](CCCCC)OC(=O)[C@@H](C)N(C)C(=O)[C@H](CCCCC)OC(=O)[C@@H](C)N(C)C1=O [Compound C1.4, ent-verticilide] ?
output: 4.68 ×10⁻⁶ cm/s

input: Which Papp is listed for "CCCCC[C@@H]1OC(=O)[C@@H](C)N(C)C(=O)[C@H](CCCCC)OC(=O)[C@@H](C)N(C)C(=O)[C@H](CCCCC)OC(=O)[C@@H](C)N(C)C(=O)[C@H](CCCCC)OC(=O)[C@@H](C)N(C)C(=O)[C@H](CCCCC)OC(=O)[C@@H](C)N(C)C1=O" ?
output: 3.64 ×10⁻⁶ cm/s

input: Which Papp is listed for "CCCCC[C@@H]1OC(=O)[C@@H](C)N(C)C1=O" ?
output: 14.3 ×10⁻⁶ cm/s

input: Which Papp is listed for CCCCC[C@@H]1OC(=O)[C@@H](C)N(C)C(=O)[C@H](CCCCC)OC(=O)[C@@H](C)N(C)C(=O)[C@H](CCCCC)OC(=O)[C@@H](C)N(C)C1=O [Compound C1.3, ent-verticilide B1] ?
output: 3.36 ×10⁻⁶ cm/s

input: Which Papp is listed for "CCCCC[C@@H]1OC(=O)[C@@H](C)N(C)C(=O)[C@H](CCCCC)OC(=O)[C@@H](C)N(C)C1=O" ?
output: 5.44 ×10⁻⁶ cm/s
